- System: BT-549
- ASSAY_PROTOCOL: NCI tumour cell line growth inhibition, 48 h
Activity calls are given as the source filed them. No stated cut-off is given here; in the data, active = GI50 up to about 1.1 µM and inactive = higher. Non-standard residues stand in square brackets, D forms with d. Residues, ends and D or L forms follow the SMILES beside them. ΔPro = O=C(O)[CH]1C=CCN1

| COMPOUND | GI50 |
| --- | --- |
| COc1ccc(NC(=O)CSC(=O)c2ccccc2)c(SCCSSCCSc2cc(OC)ccc2NC(=O)CSC(=O)c2ccccc2)c1 | > 100 µM (inactive) |
| O=C(O)C1C=CCN1C(=O)C1C=CCN1C(=O)C1C=CCN1 (stereo not given) (H-[ΔPro]-[ΔPro]-[ΔPro]-OH; configuration not given here) | > 100 µM (inactive) |
| OC(C#Cc1ccccc1)(c1ccccc1)c1ccccc1 | 51.1 µM (inactive) |
| CC1CCC(=O)C(C(=O)CC2CC(=O)NC(=O)C2)C1 (stereo not given) | > 100 µM (inactive) |
| CCOn1cc(C[C@@]2(O)C(=O)OC3[C@@H](O)CO[C@@]32O)c2ccccc21 (stereo not given in full) | > 100 µM (inactive) |

---

- Test system: SK-MEL-5
- ASSAY_PROTOCOL: NCI tumour cell line growth inhibition, 48 h
Calls of active or inactive are those of the source. Cut-off read from the data, not from the text of the source: active = GI50 up to about 1.1 µM and inactive = higher.
Classes used: active, inactive

| COMPOUND | CLASS_LABEL |
| --- | --- |
| N#CC(=C1CCCCC1)c1nc2ccccc2o1 | inactive |
| O=C1NC(=S)NC(=O)C1=CC1CC1 | inactive |
| COC(=O)C(=Cc1cc(OC)c(OC)c(OC)c1-c1cc2c(cc1C(C)=O)OCO2)C(=O)OC | inactive |
| Clc1ccc(CSC2=NCCN2)cc1Cl | inactive |
| Cc1cn([C@@H]2O[C@H](CO[Si](C)(C)C(C)(C)C)[C@]3(O[C@H]3C(=O)NN)[C@H]2O[Si](C)(C)C(C)(C)C)c(=O)[nH]c1=O | inactive |
| CCOC(=O)C1=C(OC(OCC)C(C)[Se]c2ccccc2)CCC1 (stereo unspecified) | inactive |
| NN/C(=N\S(=O)(=O)c1cc2ccccc2o1)Nc1ccc(Cl)cc1 | inactive |
| COc1cc2c(c(OC)c1OC)-c1ccc(SC)c(=O)cc1[C@@H](NCc1cccc([N+](=O)[O-])c1)CC2 | active |
| O=S(=O)(c1ccccc1)C1CN(Cc2ccccc2)CCN(Cc2ccccc2)C1 | inactive |
| O=C1C(/N=N/c2ccc(-c3nc4ccccc4[nH]3)cc2)NC(=S)N1c1ccccc1 (stereo unspecified) | inactive |
| C=C1c2nc3ccccc3n2C=C(c2ccc(C)cc2)N1c1ccccc1 | inactive |
| COc1ccccc1/C=C(\NC(=O)c1ccccc1)c1nc2ccc(Cl)cc2[nH]1 | inactive |
| CCC(=O)C1(c2ccccc2)CCN(C)CC1 | inactive |
| COc1ccc(/C=C/C(=O)c2ccc(Br)cc2)cc1 | inactive |
| COc1ccc2c(c1)C1C(CO2)C(c2ccccc2)=NN1c1ccccc1 (stereo unspecified) | inactive |
| CN1CCc2ccccc2C1Cc1ccccc1NC(=O)c1sc2ccccc2c1Cl (stereo unspecified) | inactive |
| CC(C)(C)C1CCC(CI)(N=[N+]=[N-])CC1 (stereo unspecified) | inactive |
| Cc1ccc(NC(=O)C(=O)C(C(=O)/C=C/c2ccccc2)C2OC(=O)c3ccccc32)c(C)c1 (stereo unspecified) | inactive |
| CCN(CC)C(=S)SC(C(=O)Nc1nnc(-c2ccccc2)o1)c1ccccc1 (stereo unspecified) | inactive |
| O=c1c2cc([N+](=O)[O-])cnc2sn1-c1ccc(Oc2ccccc2)cc1 | inactive |
| C/C1=N\[N-]C(=O)c2ccccc2C(=O)N/N=C(\C)c2cccc1n2.O=[N+]([O-])[O-].[Zn+2] | inactive |
| O=C(NC1CCC(=O)N1C(=O)OCc1ccccc1)OCc1ccccc1 (stereo unspecified) | inactive |
| Cc1ccc(S(=O)(=O)N/N=C2/C3CC4CCC2C4C3)cc1 (stereo unspecified) | inactive |
| N/C(=N\c1ccccc1)c1ccccc1N | inactive |
| Cc1nc2ccccc2n1Cc1ccc(NC(=S)NC2CCCCC2)cc1 | inactive |
| CCOC(=O)Oc1ccc2[nH]c3c(C)cc(N)c(C)c3c2c1 | inactive |
| CCCCCCCCCC1CC(=O)OC23CCCC(=O)C12O3 (stereo unspecified) | inactive |
| N=C1SCCS1 | inactive |
| O=c1c2ccccc2oc2c1ccc1ncccc12 | inactive |
| NC(CSC1c2ccccc2-c2ccccc21)C(=O)O (stereo unspecified) | inactive |
| O=P(NCCCO)(OCc1ccccc1)N(CCCl)CCCl (stereo unspecified) | inactive |
| COC(=O)C1=CO[C@@H](OC2CC(CO)C(O)C(O)C2O)[C@@H]2[C@@H](C)[C@@H](OC(=O)/C=C/c3ccccc3)[C@@H](O)[C@H]12.COC(=O)C1=CO[C@@H](OC2CC(CO)C(O)C(O)C2O)[C@@H]2[C@@H](C)[C@@H](OC(=O)c3ccccc3)[C@@H](O)[C@H]12 (stereo partly specified) | inactive |
| Cc1c(C(=O)OCc2ccccc2)[n+]([O-])c2ccccc2[n+]1[O-] | inactive |
| CN(C)CCN1C(=O)c2cccc3cc([N+](=O)[O-])cc(c23)C1=O [MITONAFIDE] | active |
| C[N+]1(CC[N+]2(C)CCCC2c2cccnc2)CCCC1c1cccnc1 (stereo unspecified) | inactive |
| O=C(CCCCCCC(=O)Nc1cccnc1)NO [PYROXAMIDE] | inactive |
| SC1=NNC2(C(S)=N1)c1ccccc1-c1ccccc12 | inactive |
| O=C(Nc1ccc(Cl)cc1)c1cc(S(=O)(=O)NC2=Nc3ccc(Cl)cc3C(c3ccccc3)N2)c(SSc2cc(Cl)c(C(=O)Nc3ccc(Cl)cc3)cc2S(=O)(=O)NC2=Nc3ccc(Cl)cc3C(c3ccccc3)N2)cc1Cl (stereo unspecified) | inactive |
| CCN(CC)CCNc1ccc2nnn3c4ccc(C)cc4c(=O)c1c23 | inactive |
| O=C(C(O)c1cn(Cc2ccccc2)c2ccccc12)N1CCCCC1 (stereo unspecified) | inactive |
| C[N+](C)(N)Cc1nc(-c2ccc(Cl)cc2)no1 | inactive |

---

- Test system: Malme-3M
- ASSAY_PROTOCOL: NCI tumour cell line growth inhibition, 48 h
The source made the active and inactive calls. Rule as the data show it: active = GI50 up to about 1.1 µM and inactive = higher.
Possible outcomes: active, inactive

| COMPOUND | CLASS_LABEL |
| --- | --- |
| Nc1ccn([C@H]2CO[C@@H](CO)O2)c(=O)n1 | inactive |
| COC1C(O)C(C)OC(OC2C(Oc3cccc4c(O)c5c(=O)oc6ccc(C)c7c(=O)oc(c34)c5c67)OC(C)C(O)C2O)C1O (stereo not given) | inactive |
| CCCCCCCCCCCCCC(=O)OCC1OC(OC)C(NC(=O)N(CCCl)N=O)C(O)C1O (stereo not given) | inactive |
| COC(=O)C1=CO[C@@H](OC2CC(CO)C(O)C(O)C2O)[C@@H]2[C@@H](C)[C@@H](OC(=O)/C=C/c3ccccc3)[C@@H](O)[C@H]12.COC(=O)C1=CO[C@@H](OC2CC(CO)C(O)C(O)C2O)[C@@H]2[C@@H](C)[C@@H](OC(=O)c3ccccc3)[C@@H](O)[C@H]12 (stereo not given in full) | inactive |
| O=C1c2c(O)cccc2C(C(=O)CCCC(=O)C2c3cccc(O)c3C(=O)c3c(O)cccc32)c2cccc(O)c21 | active |
| Nc1ncnc2c1ncn2C1OC(CO)C(O)C1O (stereo not given) | inactive |
| O=c1c2ccccc2oc2c1ccc1ncccc12 | inactive |
| C[N+]1(CC[N+]2(C)CCCC2c2cccnc2)CCCC1c1cccnc1 (stereo not given) | inactive |
| Cn1cnnc1Sc1c([N+](=O)[O-])ncn1C | inactive |
| C/C1=N\[N-]C(=O)c2ccccc2C(=O)N/N=C(\C)c2cccc1n2.O=[N+]([O-])[O-].[Zn+2] | inactive |
| COc1c(O)c(O)cc2c1-c1ccc(OC)c(=O)cc1C(NC(C)=O)CC2 (stereo not given) | inactive |
| O=C(Nc1ccc(Cl)cc1)c1cc(S(=O)(=O)NC2=Nc3ccc(Cl)cc3C(c3ccccc3)N2)c(SSc2cc(Cl)c(C(=O)Nc3ccc(Cl)cc3)cc2S(=O)(=O)NC2=Nc3ccc(Cl)cc3C(c3ccccc3)N2)cc1Cl (stereo not given) | inactive |
| COc1cc(/C=C(\C#N)C(=O)c2ccccc2)ccc1O | inactive |
| COc1cc2c(cc1OC)C(O)[C@H](Br)C(C)(C)O2 (stereo not given in full) | inactive |
| CC(C)(C)OC(=O)C1/C(=C/CO)CN1C(=O)OC(C)(C)C (stereo not given) | inactive |
| CCC(=O)Oc1c2ccsc2c(OC(=O)CC)c2ccsc12 | active |
| Nn1c(Nc2ccc(S(=O)(=O)Nc3ncccn3)cc2)nnc(/C=C/c2c(O)ccc3ccccc23)c1=O | inactive |
| CC1/C=C/[C@@]2(C)CCC(C(C)(C)O)C2C(O)C[C@](C)(O)/C=C/C1 (stereo not given in full) | inactive |
| O=C1[C@H]2ON(c3ccccc3)C(c3ccc([N+](=O)[O-])cc3)[C@H]2C(=O)N1c1ccc(Cc2ccc(N3C(=O)[C@@H]4ON(c5ccccc5)C(c5ccc([N+](=O)[O-])cc5)[C@@H]4C3=O)cc2)cc1 (stereo not given in full) | inactive |
| CCCCCCCCCCCCCCCCS(=O)(=O)c1ccc(NN)cc1 | inactive |
| O=C(Nc1nnc(S)[nH]1)C(=O)C1C(=O)Nc2ccccc2[S+]1[O-] (stereo not given) | inactive |
| OC1(c2ccc3ccccc3c2)c2ccc3ccccc3c2C2=NCCN21 (stereo not given) | inactive |
| COC(=O)/C=C1\CCCN1CCc1cc2c(cc1CC#N)OCO2 | inactive |
| O=C1N=C2Sc3ccc4ccccc4c3N2C1=O | inactive |
| NNc1nc2ccccc2c(=O)n1NC(=O)C(=O)Nc1cccc(C(F)(F)F)c1 | inactive |
| C[C@H](NC(=O)c1ccc(CNC(=O)/C=C/c2cccc(Oc3ccccc3)c2)cc1)c1ccccc1 | inactive |
| O=C(O)[C@@H]1C[C@@H](O)CN1C(=O)OCc1ccccc1 | inactive |
| CC(=O)c1cc2ccccc2oc1=O | inactive |
| NN/C(=N\S(=O)(=O)c1cc2ccccc2o1)Nc1ccc(Cl)cc1 | inactive |
| CC(C)(C)C1CCC(CI)(N=[N+]=[N-])CC1 (stereo not given) | inactive |
| COc1ccc([S+]([O-])Cc2cc(OC)ccc2OC)cc1 (stereo not given) | inactive |
| NC(=O)c1cccc([N+](=O)[O-])c1 | inactive |
| CC(CC(N)C(=O)O)C(=O)O (stereo not given) | inactive |
| CC(=O)OC1CC2C(C)(C)C(=O)C=C[C@]2(C)C2CCC3(C)C(=CC(=O)C3c3ccoc3)[C@]12C (stereo not given in full) | inactive |
| COc1ccc2c(c1)C1C(CO2)C(c2ccccc2)=NN1c1ccccc1 (stereo not given) | inactive |
| CCCCOc1ccc(S(=O)(=O)/N=C(\NN)Nc2ccc(Cl)cc2)cc1 | inactive |
| COc1ccc2oc(-c3ccc(OC)c(OC)c3OC)cc(=O)c2c1 | inactive |
| COc1ccc(-c2nc(O)c3ccccc3n2)cc1OC | inactive |
| O=[As](O)(O)c1ccc(NCc2ccccc2)cc1 | inactive |
| CCOC(=O)C1C(=O)c2cccc(OC)c2C2COC(=O)N12 (stereo not given) | inactive |
